Test system: SARS-CoV-2
assayComment: microbe, parasite or virus in culture
Type: cell-based
experimentalContext: Severe acute respiratory syndrome coronavirus 2, HeLa-ACE2, HeLa-ACE2, fixed 10 hpi, geomean; read-out: CoV-2 TOA EC50
observationType: EC50

Entry under review: "Cc1cccc(/C=N/Nc2cc(N3CCOCC3)nc(OCCc3ccccn3)n2)c1" . Reported EC50?
> 2400 nM

---

assayComment: in vitro
experimentalContext: human, Calu-3 Uninf. cells CC50 (µM), value in brackets*: remdesivir control
observationType: CC50

Entry under review: "CCC(CC)COC(=O)[C@H](C)N[P@](=O)(OC[C@H]1O[C@@](C#N)(c2ccc3c(N)ncnn23)[C@H](O)[C@@H]1O)Oc1ccccc1" . Reported CC50?
> 30 µM

---

assayComment: HepG2 72 h CellTiter-Glo cytotoxicity
experimentalContext: human, HepG2 cells
Where a name gives a salt, the structure may show the parent alone.
observationType: log10 CC50 at 72 h (log10 of the value in µM)
In our notation, the value equals log10 of CC50 at 72 h in µM.

The examples below pair each entry with its known result.
* CCc1ccc2c(c1)N(CC(C)CN(C)C)c1ccccc1S2 (stereo not shown) [Ethylisobutrazine hydrochloride] | 1.15
* COc1cc2c(Nc3ccc(Cl)c(Cl)c3F)ncnc2cc1OC[C@@H]1C[C@@H]2CN(C)C[C@@H]2C1 [Tesevatinib, XL647, Kadmon Corporation] | 0.50
* CN1CC2c3ccccc3Oc3ccc(Cl)cc3C2C1 (stereo not shown) [Asenapine maleate] | 1.30
* CCN(CC)Cc1cc(Nc2ccnc3cc(Cl)ccc23)ccc1O [Amodiaquine] | 0.58
* CC(C)(C)Cn1c(N)nc2ccc(-c3[nH]c(C(C)(C)C)nc3-c3ccc(F)cc3)nc21 [Ralimetinib mesylate/LY2228820, Ralimetinib mesylate] | 1.30
* Cc1ccc(NC(=O)c2ccc(CN3CCN(C)CC3)cc2)cc1Nc1nccc(-c2cccnc2)n1 [Imatinib mesylate] | 1.11

Now, please, on to the next molecule.
Entry under review: COC(=O)[C@H]1[C@H]2C[C@@H]3c4[nH]c5cc(OC)ccc5c4CCN3C[C@H]2C[C@@H](OC(=O)c2cc(OC)c(OC)c(OC)c2)[C@@H]1OC [Reserpine] . Reported log10 CC50 at 72 h?
1.52

---

assayComment: Uninfected HeLa-ACE2 24 h live/dead cytotoxicity counter screen
Type: cell-based, human
experimentalContext: human, uninfected HeLa-ACE2 cells; read-out: HeLa-ACE2 uninfected cytotoxicity CC50 GeoMean
Where a name gives a salt, the structure may show the parent alone.
Listing: CC50 at 24 h of selected compounds

The examples below pair each entry with its known result.
* CCOC(=O)[C@@H]1O[C@H]1C(=O)N[C@@H](CC(C)C)C(=O)N1CCN(Cc2ccc(OC)c(OC)c2OC)CC1 | > 39.8 µM
* CCCCN1CC[C@H](c2ccc(N(C)C)cc2)[C@@H](COc2ccc(C(F)(F)F)cc2)C1 | > 15.4 µM
* NC1(c2ccc(-c3nc4ccn5c(=O)[nH]nc5c4cc3-c3ccccc3)cc2)CCC1 | > 22.8 µM
* CC(C)(C)Cn1c(N)nc2ccc(-c3[nH]c(C(C)(C)C)nc3-c3ccc(F)cc3)nc21 [Ralimetinib mesylate/LY2228820, Ralimetinib mesylate] | 27.4 µM
* CCCCN(CCCC)CCC(O)c1cc2c(Cl)cc(Cl)cc2c2cc(C(F)(F)F)ccc12 (stereo not shown) [Halofantrine HCl] | > 23.9 µM

Entry under review: "COc1cc(-n2cnc3cc(-c4ccc(Cl)cc4)sc3c2=O)ccc1OCCN1CCCC1" . Reported CC50 at 24 h?
18.9 µM

Entry under review: "COc1cc2c(Nc3ccc(Cl)c(Cl)c3F)ncnc2cc1OC[C@@H]1C[C@@H]2CN(C)C[C@@H]2C1" . Reported CC50 at 24 h?
> 20.6 µM
